Numbers sourced from ChEMBL document CHEMBL3227982.

System: Plasmodium berghei
Test: Antimalarial activity against blood schizonticidal Plasmodium berghei infected in mouse assessed as change in host mean survival time at 20 mg/kg
Assay type: functional
Listed here are compounds together with their documented MST.
Give the value, in units of days, as a plain number.

compound=CCc1ccnc2c(NCCCCN)cc(OC)cc12 value_measured=0.9
compound="CCc1ccnc2c(NC(C)CCCNC(C)C)cc(OC)cc12 (stereo not given)" value_measured=-0.3
compound="COc1ccc(SCCc2ccnc3c(NC(C)CCCN)cc(OC)cc23)cc1 (stereo not given)" value_measured=0.1

Exercise: Hello, please tell me recorded MST for this one: CCc1ccnc2c(NCCCCCCN3CCN(CCO)CC3)cc(OC)cc12
Solution: 0.1

Exercise: Please supply the value of reported MST for the item CCc1ccnc2c(NC(C)CCCN(CC)CC)cc(OC)cc12 (stereo not given)
Solution: 1.1

Exercise: Please report MST for the following compound: C=Cc1ccnc2c(NC(C)CCCN)cc(OC)cc12 (stereo not given)
Solution: 1.1

Exercise: Tell me MST reported for COc1cc(NC(C)CCCN)c2nccc(CCSc3ccc(Cl)cc3)c2c1 (stereo not given)
Solution: 2.3

Exercise: Supply recorded MST for CCc1ccnc2c(NCCCCCCN(CC)CC)cc(OC)cc12 here.
Solution: 0.5

Exercise: Return value of MST for input CCc1ccnc2c(NC(C)CCCN)cc(OC)cc12 (stereo not given) , no commentary.
Solution: 2.8

Exercise: Annotate the compound COc1cc(NC(C)CCCN)c2ncccc2c1 (stereo not given) with its measured MST.
Solution: 4
